target: SARS-CoV-2 Mpro (Severe acute respiratory syndrome coronavirus 2)
As shown below, each of these compounds has a reported IC50 value.

The cases that follow already have their IC50 on record.
COC(=O)[C@H](Cc1ccc(OC(C)=O)cc1)NC(=O)C[C@H](OC(C)=O)[C@H](Cc1ccccc1)NC(=O)OC(C)(C)C [Compound 8b] | > 1000 µM
COC(=O)[C@H](Cc1ccc(O)cc1)NC(=O)C[C@H](O)[C@@H](N)Cc1ccccc1.O=C(O)C(F)(F)F [Compound 9b] | > 1000 µM
COC(=O)[C@@H](NC(=O)C[C@H](OC(C)=O)[C@H](Cc1ccccc1)NC(=O)OC(C)(C)C)C(C)C [Compound 8g] | > 1000 µM
COC(=O)[C@@H]1CCCN1C(=O)C[C@H](O)[C@@H](N)Cc1ccccc1 [Compound 9f] | > 1000 µM
COC(=O)[C@H](Cc1ccc(O)cc1)NC(=O)C[C@H](O)[C@H](Cc1ccccc1)NC(=O)OC(C)(C)C [Compound 7b] | > 1000 µM

Query string: So what does the record say about IC50 for COC(=O)[C@H](CO)NC(=O)C[C@H](O)[C@@H](N)Cc1ccccc1.O=C(O)C(F)(F)F [Compound 9a] ?
Result string: > 1000 µM

Query string: What would you report for CC(C)(C)OC(=O)N[C@@H](Cc1ccccc1)[C@@H](O)CC(=O)N[C@@H](Cc1ccccc1)C(=O)NN [Compound 10] ?
Result string: > 1000 µM

Query string: Try COC(=O)[C@H](CO)NC(=O)C[C@H](O)[C@H](Cc1ccccc1)NC(=O)OC(C)(C)C [Compound 7a] next.
Result string: > 1000 µM

Query string: Further, for COC(=O)[C@H](Cc1ccccc1)NC(=O)C[C@H](O)[C@@H](N)Cc1ccccc1 [Compound 9e] ?
Result string: > 1000 µM
